# assay-protocol: self-splicing fitness, log relative to wild type (ln ratio); higher = more splicing; Tetrahymena group I intron in knt gene, E. coli kanamycin selection, DiMSum; sequences stand for … in CUCUCU…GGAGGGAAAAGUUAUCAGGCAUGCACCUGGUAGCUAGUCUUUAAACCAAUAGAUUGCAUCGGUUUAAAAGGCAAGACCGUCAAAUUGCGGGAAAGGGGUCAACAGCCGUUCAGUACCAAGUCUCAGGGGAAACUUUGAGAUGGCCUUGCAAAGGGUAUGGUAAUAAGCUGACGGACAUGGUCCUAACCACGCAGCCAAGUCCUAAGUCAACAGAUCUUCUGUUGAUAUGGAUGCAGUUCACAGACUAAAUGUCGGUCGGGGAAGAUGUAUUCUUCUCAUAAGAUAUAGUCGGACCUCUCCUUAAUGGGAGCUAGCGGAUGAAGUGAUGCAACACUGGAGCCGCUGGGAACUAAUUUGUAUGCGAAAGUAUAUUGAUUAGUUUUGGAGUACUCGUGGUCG;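 further: selection with 25 µg/mL kanamycin versus none on LB agar overnight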
# condition-details: 30 °C
We use -3 as the dividing line for self-splicing fitness (ln): on or above the line is T, below is F.

[in] I'd appreciate it if you could say whether `AGCGAGCAAUAUUACGAUCA` has self-splicing fitness (ln) at least equal to -3.
[out] T

[in] Check the entry `AACAAGCAAUAUUACGAACA` : does self-splicing fitness (ln) equal or exceed -3?
[out] T

[in] Given `AAACAGCAAUAUUACGCCGU` , state whether its self-splicing fitness (ln) is at least -3.
[out] T

Others:
[in] Form field: self-splicing fitness (ln) at least -3? Entry: `GCCGAGCAAUAUUACGCUAG`
[out] T

[in] Could you tell me if the measured self-splicing fitness (ln) of `AGUCAGCAAUAUUACGCCGG` reaches -3 or more?
[out] T

[in] Could you tell me if the measured self-splicing fitness (ln) of `GAGUAGCAAUAUUACGAUGG` reaches -3 or more?
[out] T

[in] Answer whether self-splicing fitness (ln) of `UUAGAGCAAUAUUACGAUAA` is greater than or equal to -3.
[out] T

[in] Test whether the sequence `GAAAAGCAAUAUUACGAACG` records self-splicing fitness (ln) of -3 or higher.
[out] T

[in] Is reported self-splicing fitness (ln) greater than or equal to -3 here: `CAACAGCAAUAUUACGCAGG`
[out] T

[in] hey, is self-splicing fitness (ln) for this one >= -3? `GCCGAGCAAUAUUACGUGCA`
[out] T

[in] Can `UGGCAGCAAUAUUACGCUUC` be said to have self-splicing fitness (ln) at or above -3?
[out] T

[in] Item `CGCAAGCAAUAUUACGUAGA` with self-splicing fitness (ln) of -3 or above?
[out] T

[in] Check this sequence for self-splicing fitness (ln) at or above -3: `UGAAAGCAAUAUUACGCGCA`
[out] T

[in] Please check the record `UAUAAGCAAUAUUACGUGGC` and state if its self-splicing fitness (ln) is at or above -3.
[out] F

[in] Does the sequence `UUUCAGCAAUAUUACGCGAU` have recorded self-splicing fitness (ln) that is -3 or more?
[out] F

[in] Given `AGAUAGCAAUAUUACGUUGU` , state whether its self-splicing fitness (ln) is at least -3.
[out] T

[in] Dear colleague, could you confirm whether `GACCAGCAAUAUUACGUUAU` has self-splicing fitness (ln) at or above -3?
[out] T

[in] Is reported self-splicing fitness (ln) greater than or equal to -3 here: `AGGGAGCAAUAUUACGGGCG`
[out] F

[in] In plain terms: is recorded self-splicing fitness (ln) at least -3 for `CUAUAGCAAUAUUACGCCUG` ?
[out] T
